# tested-on: human Nectin-4 (protein used in the SPR affinity measurements) (human) (UniProt Q96NY8)
# Sequence (Q96NY8 32-349 limits assumed): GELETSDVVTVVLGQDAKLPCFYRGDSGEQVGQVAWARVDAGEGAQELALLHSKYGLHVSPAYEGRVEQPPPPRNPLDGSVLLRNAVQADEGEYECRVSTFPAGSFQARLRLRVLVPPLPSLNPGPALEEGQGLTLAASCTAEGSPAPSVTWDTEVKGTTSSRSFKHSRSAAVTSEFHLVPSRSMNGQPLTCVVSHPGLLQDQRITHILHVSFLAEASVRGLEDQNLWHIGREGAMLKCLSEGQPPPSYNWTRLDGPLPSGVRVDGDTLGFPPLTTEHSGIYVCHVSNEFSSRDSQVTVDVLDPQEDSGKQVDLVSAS
# test-summary: SPR, human IgG1
Give pKd for every item shown.
Reminder that pKd is minus the log10 of a molar concentration.

Query string: Fill in: pKd of H0L0 (antibody, human IgG1, V domains shown, human IgG1 isotype; also called HOLO; humanized 5E7 variant H0L0) VH: QVQLVQSGAEVKKPGASVKVSCKASGYTFTSYWMHWVRQAPGQGLEWMGEIDPSDSYTNYNQKFKGRVTMTRDTSTSTVYMELSSLRSEDTAVYYCARGYGNYGDYWGQGTLVTVSS VL: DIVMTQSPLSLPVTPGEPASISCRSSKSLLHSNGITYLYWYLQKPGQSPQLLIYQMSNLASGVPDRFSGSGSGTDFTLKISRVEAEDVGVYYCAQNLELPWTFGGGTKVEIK is ___
Result string: 7.10

Query string: Please report the recorded pKd for H5L3 (antibody, human IgG1, kappa, V domains shown, Tested as human IgG1) VH: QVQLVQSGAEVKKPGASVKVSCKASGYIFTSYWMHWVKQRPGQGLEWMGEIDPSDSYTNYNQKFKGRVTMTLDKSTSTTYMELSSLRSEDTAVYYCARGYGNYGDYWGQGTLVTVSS VL: DVVMTQSALSNPVTPGEPASISCRSSKSLLHSNGITYLYWYLQKPGQSPQLLIYQMSNLASGVPDRFSSSGSGTDFTLKISRVEAEDVGVYYCAQNLELPWTFGGGTKVEIKR .
Result string: 7.67

Where do the numbers come from? From patent US20250297004A1.
